Test system: CYP3A4
PROTOCOL SUMMARY: in vitro
RECORDED CONDITIONS: rat, microsomes
PARAMETER: inhibition at 10 min, 10 µM
Note to self: number, then unit, no commentary.

Q: I'd like to know its inhibition at 10 min, 10 µM. The molecule in question is CC(=O)N1CCN(c2ccc(OCC3COC(Cn4ccnc4)(c4ccc(Cl)cc4Cl)O3)cc2)CC1 (stereo unspecified) [KETOCONAZOLE]
A: 94.4%

====

Test system: CYP3A4
PROTOCOL SUMMARY: in vitro
RECORDED CONDITIONS: rat, rat liver microsomes, probe midazolam
PARAMETER: inhibition at 10 min, 10 µM (%)
Report the figure in % without appending any unit label.

Q: Enter reported inhibition at 10 min, 10 µM observed with CYP3A4 for OCCOc1ccc(-n2ccnc2)cc1
A: 6.7

Q: Enter reported inhibition at 10 min, 10 µM observed with CYP3A4 for O=C(O)c1ccc(COc2ccc(-n3ccnc3)cc2)cc1
A: 15.5

Q: Enter reported inhibition at 10 min, 10 µM observed with CYP3A4 for COC(=O)c1ccc(CCc2ccc(-n3ccnc3)cc2)cc1
A: 82.8

Q: Enter reported inhibition at 10 min, 10 µM observed with CYP3A4 for N#Cc1ccc(COc2ccc(-n3ccnc3)cc2)cc1
A: 88.1

Q: Enter reported inhibition at 10 min, 10 µM observed with CYP3A4 for CCC(C)COC(=O)c1ccc(COc2ccc(-n3ccnc3)cc2)cc1 (stereo not given)
A: 58.4

Q: Enter reported inhibition at 10 min, 10 µM observed with CYP3A4 for CCCOC(=O)c1ccc(COc2ccc(-n3ccnc3)cc2)cc1
A: 42.6

Q: Enter reported inhibition at 10 min, 10 µM observed with CYP3A4 for O=C(Oc1ccc(-n2ccnc2)cc1)c1ccc(Cl)cc1
A: 16.5

Q: Enter reported inhibition at 10 min, 10 µM observed with CYP3A4 for O=C(OCC(F)(F)F)c1ccc(COc2ccc(-n3ccnc3)cc2)cc1
A: 10.4

Q: Enter reported inhibition at 10 min, 10 µM observed with CYP3A4 for OCc1ccc(COc2ccc(-n3ccnc3)cc2)cc1
A: 84.7

Q: Enter reported inhibition at 10 min, 10 µM observed with CYP3A4 for CC(=O)OCCOc1ccc(-n2ccnc2)cc1
A: 34.7
